Here the recorded change in vivo at 20 mg/kg is given for each entry.
# Tested on: non-insulin-dependent diabetes induced in rats by Streptozotocin
# protocol summary: Antidiabetic activity by the oral route in the nOSTZ rat model of non-insulin-dependent diabetes
# Format: in vivo
# condition parameters: 96 h, nOSTZ diabetic rats, 20 mg/kg/4d, read-out: % Insulinaemia

| molecule | change in vivo at 20 mg/kg |
| --- | --- |
| O=C1NC(=O)C(CCOc2cccc3ccccc23)S1 (centres unmarked) | -31% |
| O=C1NC(=O)C(CC(O)COc2ccc(F)cc2)S1 (centres unmarked) | 4% |
| O=C1NC(=O)C(CCCCCCOc2ccc(Cl)cc2)S1 (centres unmarked) | -15% |
| O=C1NC(=O)C(CC2COc3ccccc3O2)S1 (centres unmarked) | 6% |
| O=C1NC(=O)C(CCOc2ccc(Br)cc2)S1 (centres unmarked) | -9% |
| Cc1ccc(OCCC2SC(=O)NC2=O)cc1 (centres unmarked) | -30% |
| O=C1NC(=O)C(CCOc2ccccc2F)S1 (centres unmarked) | -23% |
| CC(COc1ccccc1)C1SC(=O)NC1=O (centres unmarked) | 2% |
| O=C1NC(=O)C(CCCOc2ccc(F)cc2)S1 (centres unmarked) | 1% |
| O=C1NC(=O)C(C(COc2ccc(F)cc2)c2ccccc2)S1 (centres unmarked) | -35% |
| O=C1NC(=O)C(CCCCCOc2ccc(F)cc2)S1 (centres unmarked) | -12% |

###

Here the recorded change in vivo at 20 mg/kg is given for each entry.
# Test system: non-insulin-dependent diabetes induced in rats by Streptozotocin
# protocol summary: Antidiabetic activity by the oral route in the nOSTZ rat model of non-insulin-dependent diabetes
# Type: in vivo
# condition parameters: 96 h, nOSTZ diabetic rats, 20 mg/kg/4d, read-out: % Insulinaemia

| compound | change in vivo at 20 mg/kg (%) |
| --- | --- |
| N#Cc1ccc(OCCC2SC(=O)NC2=O)cc1 (stereo not drawn) | 0 |
| O=C1NC(=O)C(CCOc2ccc3ccccc3c2)S1 (stereo not drawn) | -9 |
| O=C1NC(=O)C(CCOc2ccc(F)cc2)S1 (stereo not drawn) | -1 |
| Cc1ccc(C)c(OCCC2SC(=O)NC2=O)c1 (stereo not drawn) | -4 |
| O=C1NC(=O)C(CCOc2ccc(Cl)cc2)S1 (stereo not drawn) | -35 |
| O=C1NC(=O)C(C(O)COc2ccc(F)cc2)S1 (stereo not drawn) | -12 |

###

Here the recorded change in vivo at 200 mg/kg is given for each entry.
# Test system: non-insulin-dependent diabetes induced in rats by Streptozotocin
# protocol summary: Antidiabetic activity by the oral route in the nOSTZ rat model of non-insulin-dependent diabetes
# Type: in vivo
# condition parameters: 96 h, nOSTZ diabetic rats, 200 mg/kg/4d, read-out: % Glycaemia
experimental readout: change in vivo at 200 mg/kg (%)

| molecule | experimental readout | reported value |
| --- | --- | --- |
| O=C1NC(=O)C(CC(O)COc2ccc(F)cc2)S1 (stereo not shown) [Compound 17] | change in vivo at 200 mg/kg | -7 |
| Cc1ccc(C)c(OCCC2SC(=O)NC2=O)c1 (stereo not shown) [Compound 18] | change in vivo at 200 mg/kg | -9 |
| O=C1NC(=O)C(C(COc2ccc(F)cc2)c2ccccc2)S1 (stereo not shown) [Compound 12] | change in vivo at 200 mg/kg | -6 |
| O=C1NC(=O)C(CCOc2ccccc2)S1 (stereo not shown) [Compound 1, 5-(2-phenoxyethyl)-2,4-thiazolidinedione] | change in vivo at 200 mg/kg | -26 |
| O=C1NC(=O)C(CCCOc2ccc(F)cc2)S1 (stereo not shown) [Compound 3] | change in vivo at 200 mg/kg | -17 |
| N#Cc1ccc(OCCC2SC(=O)NC2=O)cc1 (stereo not shown) [Compound 6] | change in vivo at 200 mg/kg | -26 |
| CC(COc1ccccc1)C1SC(=O)NC1=O (stereo not shown) [Compound 19] | change in vivo at 200 mg/kg | -20 |
| O=C1NC(=O)C(CC2COc3ccccc3O2)S1 (stereo not shown) [Compound 7] | change in vivo at 200 mg/kg | -10 |
| O=C1NC(=O)C(C(O)COc2ccc(F)cc2)S1 (stereo not shown) [Compound 16] | change in vivo at 200 mg/kg | -22 |
| O=C1NC(=O)C(CCOc2ccc(F)cc2)S1 (stereo not shown) [Compound 2] | change in vivo at 200 mg/kg | -19 |

###

# Test system: non-insulin-dependent diabetes induced in rats by Streptozotocin
# protocol summary: Antidiabetic activity by the oral route in the nOSTZ rat model of non-insulin-dependent diabetes
# Format: in vivo
# condition parameters: 96 h, nOSTZ diabetic rats, 200 mg/kg/4d, read-out: % Glycaemia
# Excerpt: To determine an antidiabetic activity by the oral route on an experimental model of non-insulin-dependent diabetes induced in rats by Streptozotocin. The non-insulin-dependent diabetes model is obtained in rats by a neonatal injection (on the day of birth) of Streptozotocin. The diabetic rats used are 8 weeks old. […]
experimental readout: change in vivo at 200 mg/kg (%)

| molecule | units text | reported value |
| --- | --- | --- |
| O=C1NC(=O)C(CCOc2ccccc2F)S1 (centres unmarked) | % | -7 |
| COCCc1ccc(OCCC2SC(=O)NC2=O)cc1 (centres unmarked) | % | -14 |
| O=C1NC(=O)C(CCCCCOc2ccc(F)cc2)S1 (centres unmarked) | % | -9 |
| O=C1NC(=O)C(CCCCCCOc2ccc(Cl)cc2)S1 (centres unmarked) | % | -16 |
| O=C1NC(=O)C(CCOc2cccc3ccccc23)S1 (centres unmarked) | % | -21 |
| O=C1NC(=O)C(CCOc2ccc(Cl)cc2)S1 (centres unmarked) | % | -17 |
| O=C1NC(=O)C(CCOc2ccc(Br)cc2)S1 (centres unmarked) | % | -23 |
| O=C1NC(=O)C(CCOc2cccc(F)c2)S1 (centres unmarked) | % | -2 |
| O=C1NC(=O)C(CCOc2ccc(C(=O)O)cc2)S1 (centres unmarked) | % | -9 |
| Cc1ccc(OCCC2SC(=O)NC2=O)cc1 (centres unmarked) | % | -9 |
| O=C1NC(=O)C(CCOc2ccc3ccccc3c2)S1 (centres unmarked) | % | -22 |

###

experimental readout: melting point

| compound | reported value |
| --- | --- |
| O=C1NC(=O)C(CC(O)COc2ccc(F)cc2)S1 (stereo not shown) [Compound 17] | 96 to 98 °C |
| CC(COc1ccccc1)C1SC(=O)NC1=O (stereo not shown) [Compound 19] | 106 to 108 °C |
| O=C1NC(=O)C(CCCOc2ccc(F)cc2)S1 (stereo not shown) [Compound 3] | 121 to 123 °C |
| O=C1NC(=O)C(CC2COc3ccccc3O2)S1 (stereo not shown) [Compound 7] | 145 °C |
| O=C1NC(=O)C(C(O)COc2ccc(F)cc2)S1 (stereo not shown) [Compound 16] | 131 to 133 °C |
| O=C1NC(=O)C(CCOc2ccccc2F)S1 (stereo not shown) [Compound 14] | 138 °C |
| Cc1ccc(C)c(OCCC2SC(=O)NC2=O)c1 (stereo not shown) (hydrate or solvate) [Compound 18] | 134 to 136 °C |
| O=C1NC(=O)C(CCOc2cccc(F)c2)S1 (stereo not shown) [Compound 13] | 87 °C |
| O=C1NC(=O)C(CCOc2ccc(Cl)cc2)S1 (stereo not shown) [Compound 4] | 116 to 118 °C |
| COCCc1ccc(OCCC2SC(=O)NC2=O)cc1 (stereo not shown) [Compound 20] | 101 to 103 °C |
| O=C1NC(=O)C(CCOc2cccc3ccccc23)S1 (stereo not shown) [Compound 11] | 185 to 187 °C |
| O=C1NC(=O)C(CCCCCCOc2ccc(Cl)cc2)S1 (stereo not shown) [Compound 9] | 68 to 70 °C |
| O=C1NC(=O)C(CCCCCOc2ccc(F)cc2)S1 (stereo not shown) [Compound 10] | 98 to 100 °C |
| O=C1NC(=O)C(CCOc2ccc3ccccc3c2)S1 (stereo not shown) [Compound 15] | 133 °C |
| Cc1ccc(OCCC2SC(=O)NC2=O)cc1 (stereo not shown) [Compound 8] | 119 to 121 °C |
| O=C1NC(=O)C(CCOc2ccc(C(=O)O)cc2)S1 (stereo not shown) [Compound 21] | 234 to 236 °C |
| O=C1NC(=O)C(CCOc2ccc(F)cc2)S1 (stereo not shown) [Compound 2] | 94 to 96 °C |
| O=C1NC(=O)C(CCOc2ccc(Br)cc2)S1 (stereo not shown) [Compound 5] | 104 to 106 °C |
| O=C1NC(=O)C(C(COc2ccc(F)cc2)c2ccccc2)S1 (stereo not shown) [Compound 12] | 121 °C |
